Cited source: patent US20180289692A1

Reported IFN-γ values for the following substances.
Test system: human PBMCs
Assay: Cytokine production by human PBMCs treated with ODNs, MagPix Multi-Plex
Format: cell-based
Conditions: high-dose ODN 10 μM, human PBMC, 24 hrs
Oligonucleotides are written 5' to 3', each unit as a sugar letter and its base; * is a phosphorothioate linkage, no mark a phosphodiester; rarer units and linkages stand in square brackets, end groups in braces. Plain capitals give the bases only. d = 2'-deoxy (DNA); m = 2'-O-methyl
Provide only the numeric value, understood in pg/mL.

Observe how each entry below is paired with its result.
substance	IFN-γ, pg/mL
ODN150C: 5′-G*G*A*ACAGTTAGTCCATa*G*G*C-3′, PO except * = PS; control lacking CG-dinucleotide sequences (DNA GGAACAGTTAGTCCATGGC; listed as DNA, chemistry not fully specified)	0.1
ODN7040C: 5′-CTGCCAAGTTCACCTGCA*C*C*-3′, PO; * = 2′OMe; control lacking CG-dinucleotide sequences (DNA dCdTdGdCdCdAdAdGdTdTdCdAdCdCdTdGdCmAmCmC)	0.2

Query block: Which IFN-γ value is on record for ODN301C: 5′-GTAGCCCCATCACCCAGCAGC-3′, fully PS, GC-containing (DNA dG*dT*dA*dG*dC*dC*dC*dC*dA*dT*dC*dA*dC*dC*dC*dA*dG*dC*dA*dG*dC) ?
Result block: 0

###

Test system: human PBMCs
Test: Cytokine production by human PBMCs treated with ODNs, MagPix Multi-Plex
Assay type: cell-based
Conditions: high-dose ODN 10 μM, human PBMC, 24 hrs
Oligonucleotides are written 5' to 3', each unit as a sugar letter and its base; * is a phosphorothioate linkage, no mark a phosphodiester; rarer units and linkages stand in square brackets, end groups in braces. Plain capitals give the bases only. d = 2'-deoxy (DNA); m = 2'-O-methyl
quantity measured: IL-6 (fold change)
Provide only the numeric value, understood in fold change.

Observe how each entry below is paired with its result.
substance	numeric result
ODN301C: 5′-GTAGCCCCATCACCCAGCAGC-3′, fully PS, GC-containing (DNA dG*dT*dA*dG*dC*dC*dC*dC*dA*dT*dC*dA*dC*dC*dC*dA*dG*dC*dA*dG*dC)	3.3
ODN302: 5′-GTCGCTCTTCTCCTCCGCCAG-3′, fully PS; scrambled (non-SMAD7 AON) control sequence with two CG sequences (DNA dG*dT*dC*dG*dC*dT*dC*dT*dT*dC*dT*dC*dC*dT*dC*dC*dG*dC*dC*dA*dG)	41

Query block: Which IL-6 value is on record for ODN150: 5′-G*G*A*ACAGTTCGTCCAT*G*G*C-3′, PO except * = PS; antisense to p65 of NF-kB mRNA; tested clinically for ulcerative colitis (DNA dG*dG*dA*dAdCdAdGdTdTdCdGdTdCdCdAdT*dG*dG*dC) ?
Result block: 11.8

Query block: Which IL-6 value is on record for ODN150C: 5′-G*G*A*ACAGTTAGTCCATa*G*G*C-3′, PO except * = PS; control lacking CG-dinucleotide sequences (DNA GGAACAGTTAGTCCATGGC; listed as DNA, chemistry not fully specified) ?
Result block: 1.4

Query block: Which IL-6 value is on record for ODN7040C: 5′-CTGCCAAGTTCACCTGCA*C*C*-3′, PO; * = 2′OMe; control lacking CG-dinucleotide sequences (DNA dCdTdGdCdCdAdAdGdTdTdCdAdCdCdTdGdCmAmCmC) ?
Result block: 2.1
